# study system: Jak2 (human Jak2 kinase domain, amino acids 808-1132) (Homo sapiens (Human))
# Sequence (O60674 808-1132): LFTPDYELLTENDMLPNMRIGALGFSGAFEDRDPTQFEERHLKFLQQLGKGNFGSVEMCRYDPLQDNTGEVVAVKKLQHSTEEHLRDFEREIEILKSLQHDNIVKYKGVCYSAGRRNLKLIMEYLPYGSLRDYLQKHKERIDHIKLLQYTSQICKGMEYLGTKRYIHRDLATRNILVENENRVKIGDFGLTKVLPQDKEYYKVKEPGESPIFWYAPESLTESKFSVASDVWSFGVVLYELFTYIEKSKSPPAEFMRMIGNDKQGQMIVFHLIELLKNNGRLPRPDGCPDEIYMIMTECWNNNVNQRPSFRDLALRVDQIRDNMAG
# test summary: Jak2 inhibition assay (Omnia kinase assay)
# Type: biochemical
# condition info: read-out: Jak2 Enzyme (% inhibition at 1000 nM), Table 1; 1000 nM test compound
test readout: inhibition at 1 µM (%)

structure as smiles: CC(C)NC(=O)c1cnn2ccc(N3CCC[C@@H]3c3cncc(F)c3)nc12
study system: Jak2 (human Jak2 kinase domain, amino acids 808-1132) (Homo sapiens (Human))
inhibition at 1 µM (%): 34.7

structure as smiles: COCCOc1cc(F)cc([C@H]2CCCN2c2ccn3ncc(C(=O)NC4CC4)c3n2)c1
study system: Jak2 (human Jak2 kinase domain, amino acids 808-1132) (Homo sapiens (Human))
inhibition at 1 µM (%): 15.3

structure as smiles: CN(C)C(=O)c1cnn2ccc(N3CCC[C@@H]3c3cc(F)ccc3F)nc12
study system: Jak2 (human Jak2 kinase domain, amino acids 808-1132) (Homo sapiens (Human))
inhibition at 1 µM (%): 1.3

structure as smiles: CC1(NC(=O)c2cnn3ccc(N4CCC[C@@H]4c4cncc(F)c4)nc23)CC1
study system: Jak2 (human Jak2 kinase domain, amino acids 808-1132) (Homo sapiens (Human))
inhibition at 1 µM (%): 34.9

structure as smiles: Cn1cc(F)cc([C@H]2CCCN2c2ccn3ncc(C(=O)N[C@H](CO)C(C)(C)C)c3n2)c1=O
study system: Jak2 (human Jak2 kinase domain, amino acids 808-1132) (Homo sapiens (Human))
inhibition at 1 µM (%): 6.7

P = COCCOc1cc(F)cc([C@H]2CCCN2c2ccn3ncc(C(N)=O)c3n2)c1
Q = COc1ncc(F)cc1[C@H]1CCCN1c1ccn2ncc(C(=O)NC3CC3)c2n1
q: Parameter check: reported inhibition at 1 µM is higher for which label, P or Q ? Response format: the label of the selected entry.
a: Q
